- Test system: DU-145 prostate
- TEST_DESCRIPTION: NCI tumour cell line growth inhibition, 48 h
MEASUREMENT_TYPE: log10(TGI) (log10 of the value in µM)
Recorded TGI (log10, µM)

Before answering, review these 3 worked examples.
MOLECULE	ASSAYED_TARGET	log10(TGI)
Nc1ncnc2sc(=S)c3c(c12)CCC3	DU-145 prostate	1.76
CCCN1C(=O)/C(=c2\sc3n(c2=O)C2C(NN=3)N(CC)C(=O)N2CC)c2ccccc21 (stereo not given)	DU-145 prostate	1.04
Cc1c2ccncc2cc2c1sc1ccncc12	DU-145 prostate	0.84

Now look at this entry.
Notebook: N#CC1(C#N)C2CCCCC23OC(=N)C1(C#N)C(c1ccco1)O3 (stereo not given) , log10(TGI) read as 1.95
